system: Raw 264.7 Macrophages; conditions: mouse, 48 h
Answer each item with its documented Mammalian cells LD50 (μM) Raw 264.7 Macrophages.
Numbers only, in µM.

compound | measured.target | value.unit | experimental.result
CCOC(=O)c1c(NC(=O)c2ccc(F)c(C(F)(F)F)c2)sc2c1CC(C)(C)NC2(C)C | Raw 264.7 Macrophages | µM | 22

Field: next molecule
In plain terms, CCOC(=O)c1c(NC(=O)c2cccc(C(F)(F)F)c2F)sc2c1CC(C)(C)NC2(C)C has a documented Mammalian cells LD50 (μM) Raw 264.7 Macrophages of 17
